Listed binders paired with reported Phage binding ELISA, Anti-CD28 Fab signal
# MEASURED ON: T1, Anti-CD28 Fab (SEQ ID NOs: 696, 697)
# T1 construct: In the phage ELISA the Fab was biotinylated and captured on neutravidin coated plates
# EXPERIMENTAL PROTOCOL: phage ELISA; biotinylated anti-CD28 Fab on neutravidin plate, clonal phage supernatant, anti-M13 HRP detection;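 further: before phage addition, wells were pretreated with either CD28 antigen in blocking buffer or only blocking buffer, and phage was added without an intervening wash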

Past entries and their recorded results:
>  <BINDER>
SCAAGLSYPWPDCL (Tested as clonal phage supernatant; not shown: fused to pIII of the bacteriophage) [Phage-1502 (Peptide-92 library clone, SEQ ID NO: 1798)]

>  <TEST VALUE>
1.65

$$$$
>  <BINDER>
RCAAGVMYDWPVCL (Tested as clonal phage supernatant; not shown: fused to pIII of the bacteriophage) [Phage-1490 (Peptide-92 library clone, SEQ ID NO: 1786)]

>  <TEST VALUE>
1.7

$$$$
>  <BINDER>
TCAAGAGWAWPFCF (Tested as clonal phage supernatant; not shown: fused to pIII of the bacteriophage) [Phage-1503 (Peptide-92 library clone, SEQ ID NO: 1799)]

>  <TEST VALUE>
1.65

$$$$
>  <BINDER>
TCSAGASYPWPVCL (Tested as clonal phage supernatant; not shown: fused to pIII of the bacteriophage) [Phage-1495 (Peptide-92 library clone, SEQ ID NO: 1791)]

>  <TEST VALUE>
1.67

$$$$
>  <BINDER>
TCSAGATYNWPWCF (Tested as clonal phage supernatant; not shown: fused to pIII of the bacteriophage) [Phage-1494 (Peptide-92 library clone, SEQ ID NO: 1790)]

>  <TEST VALUE>
1.68

$$$$
>  <BINDER>
LCSAGAMYPWPLCY (Tested as clonal phage supernatant; not shown: fused to pIII of the bacteriophage) [Phage-1498 (Peptide-92 library clone, SEQ ID NO: 1794)]

>  <TEST VALUE>
1.66

$$$$

Phage binding ELISA, Anti-CD28 Fab signal in this record for LCAAGANYPWPACL (Tested as clonal phage supernatant; not shown: fused to pIII of the bacteriophage) [Phage-1500 (Peptide-92 library clone, SEQ ID NO: 1796)] : 1.66

Recorded Phage binding ELISA, Anti-CD28 Fab signal (binder TCSAGAHWTWPLCF (Tested as clonal phage supernatant; not shown: fused to pIII of the bacteriophage) [Phage-1491 (Peptide-92 library clone, SEQ ID NO: 1787)] ): 1.69

Reference for the values: patent US20260242478A1
